Test system: TK-10 renal
protocol_notes: NCI-60 one-dose screen, 48 h (100 = growth as untreated, 0 = no growth, -100 = all killed)
condition_notes: 10 µM unless noted
Compounds without any hit were thinned out: in the full panel of roughly 83,000, 20% have a hit.
experimental_readout: growth (%)
Supply the numeric figure in %, leaving out any unit text.

Below, each entry is followed by its recorded growth result.
molecule | growth / %
CC(C)c1nc2ccccc2n1CC(=O)N/N=C/c1cccc(O)c1 | 93.5
S=C(Nc1ccc(Cl)cc1)Nc1ccc(Cl)cc1 (tested in a mixture with another compound) | 1.45
S=C(Cc1ccccc1)N1CCN(c2ccccc2Cl)CC1 | 116
CCN1C(=O)N(CC)C2C1NN=c1s/c(=C\c3ccc(Br)cc3)c(=O)n12 (stereo unspecified) | 52.7
COc1cc(OC)c2sc(-c3ccc(-n4cncc4-c4ccc(OC)c(N)c4)cc3)nc2c1 | 82.8

Tell me the measured growth of `CCC(=O)NC1=C(Cl)C(=O)C(NC(=O)CC)=C(Cl)C1=O` , please.
50.5

Reported growth, molecule `CCCNCCC(C)=O` : ____
101

// returns reported growth for input `NS(=O)(=O)c1ccc(CCn2c(SCC(=O)N/N=C/c3cc4ccccc4[nH]3)nc3ccccc3c2=O)cc1`
102

State the recorded growth for this entry: `C=C[C@H]1CCC/C=C/[C@@H]2C[C@H](O)C[C@H]2[C@H](O)/C=C/C(=O)O1`
-45.6

What measured growth goes with C=CCN1C(=O)/C(=c2\sc3n(c2=O)C2C(NN=3)N(CC)C(=O)N2CC)c2ccccc21 (stereo unspecified) ?
60.6

Please look up its growth: `Cc1c(C(N)=O)sc2ncn(CC(=O)NN=C3CCCCC3)c(=O)c12`
106

I'd like to know its growth. The molecule in question is CC(=O)NC1C(O[C@H]2C[C@H]3[C@@H]4CC=C5C[C@@H](O)CC[C@]5(C)[C@H]4CC[C@]3(C)[C@H]2[C@H](C)C(=O)CCC(C)C)OCC(O)C1O (stereo partly specified)
60.4

What value of growth has been reported for the following molecule? `C=C1C(=O)O[C@H]2[C@H]1CC/C(COC(=O)NCc1c[nH]c3ccc(OC)cc13)=C\CC[C@@]1(C)O[C@@H]21`
-40.3

Sample `CN(C)c1ccc(/C=C\c2cccc[n+]2C)cc1` — what was its growth?
67.2

Fill blank: measured growth of the molecule `O=C(Nc1ccc([N+](=O)[O-])cc1)c1cc2ccccc2cc1O` is ____.
-19.5

Quick check: growth of COC(=O)OC1C(O[C@H]2C[C@H]3[C@@H]4CC=C5C[C@@H](O)CC[C@]5(C)[C@H]4CC[C@]3(C)[C@H]2[C@H](C)C(=O)CCC(C)C)OCC(O)C1OC1OCC(O)C(O)C1OC(=O)c1ccc(OC)cc1 (stereo partly specified) ?
0.902

Which value of growth has been reported for COc1ccc2c(c1)N(Cc1ccc(Cl)cc1)CCC2N1CCCC1=O (stereo unspecified) in the records?
55.3

Given the molecule `COc1cnc2c(c1)C(=O)c1c-2n(CCCN2CCCC2)c(=O)c2cc(Cl)ccc12` , what is its reported growth?
39.4

May I ask what growth has been recorded for `Nc1c(N)c2ccccc2c2ccccc12` ?
119

Value lookup for growth; key = `CCN1CCN(Cc2ccc(NC(=O)Nc3ccc(-n4ccc5c(NC(=O)c6ccccc6)nccc54)cc3)cc2C(F)(F)F)CC1`
25.5

Reported growth, molecule `C/C(=N\NC(=O)CSc1nc2ccccc2c(=O)n1CCc1ccc(S(N)(=O)=O)cc1)c1ccc(Br)cc1` : ____
106
